biological target: gH of HCMV strain TB40/E (human cytomegalovirus strain TB40/E); assay: cell-based or functional assay
MEASUREMENT KIND: IC50, neutralization of TB40/E infection of CTB (µg/mL)
Answers are plain numbers, in µg/mL.

Q: Please report the recorded IC50, neutralization of TB40/E infection of CTB for 21E9 (antibody, V domains shown, also called NAb 21E9) VH: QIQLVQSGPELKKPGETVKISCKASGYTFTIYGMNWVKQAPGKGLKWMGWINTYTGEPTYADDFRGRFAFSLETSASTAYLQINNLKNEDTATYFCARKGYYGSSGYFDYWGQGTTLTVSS VL: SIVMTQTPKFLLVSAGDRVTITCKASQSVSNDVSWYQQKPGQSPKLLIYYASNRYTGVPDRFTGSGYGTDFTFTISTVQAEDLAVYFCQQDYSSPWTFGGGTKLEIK .
A: 42.4
